Source: ChEMBL document CHEMBL1124548

Recorded SI for the following compounds
Biological target: Human immunodeficiency virus type 1 reverse transcriptase (Human immunodeficiency virus 1)
Assay: Selectivity index is the […] values against inhibition of HIV-1 in MT-4 cells
Type: functional, cell-based
Details: MT4
In your answer, state the number alone without any accompanying words.

// below: answered compounds
| Smiles Str | Quantitative Readout |
| --- | --- |
| OC[C@H]1O[C@@H](n2cnc3c(O)ncnc32)C[C@@H]1F | 1 |
| Nc1ncnc2c1ncn2[C@H]1CC[C@@H](CO)O1 | 139 |
| Cc1cn([C@H]2C=C(F)[C@@H](CO)O2)c(=O)[nH]c1=O | 22 |
| Nc1ncnc2c1ncn2[C@H]1C[C@H](F)[C@@H](CO)O1 | 11.1 |
| Cc1cn([C@H]2C[C@H](F)[C@@H](CO)O2)c(=O)nc1N | 4.5 |

Please fill in: SI reported for Nc1ncnc2c1nc(Br)n2[C@H]1CC[C@@H](CO)O1 = 1

Entry O=c1[nH]c(=O)n([C@H]2C[C@H](F)[C@@H](CO)O2)cc1I ; SI = 13.6
